- TESTED TARGET: T1, biotinylated LRR ectodomain of BARELY ANY MERISTEM 1 (BAM1, residues 20 - 637) with Avi-tag (Arabidopsis (printed as AtBAM1), UniProt O49545 20-637, biotin (BirA biotinylation))
- T1 chain: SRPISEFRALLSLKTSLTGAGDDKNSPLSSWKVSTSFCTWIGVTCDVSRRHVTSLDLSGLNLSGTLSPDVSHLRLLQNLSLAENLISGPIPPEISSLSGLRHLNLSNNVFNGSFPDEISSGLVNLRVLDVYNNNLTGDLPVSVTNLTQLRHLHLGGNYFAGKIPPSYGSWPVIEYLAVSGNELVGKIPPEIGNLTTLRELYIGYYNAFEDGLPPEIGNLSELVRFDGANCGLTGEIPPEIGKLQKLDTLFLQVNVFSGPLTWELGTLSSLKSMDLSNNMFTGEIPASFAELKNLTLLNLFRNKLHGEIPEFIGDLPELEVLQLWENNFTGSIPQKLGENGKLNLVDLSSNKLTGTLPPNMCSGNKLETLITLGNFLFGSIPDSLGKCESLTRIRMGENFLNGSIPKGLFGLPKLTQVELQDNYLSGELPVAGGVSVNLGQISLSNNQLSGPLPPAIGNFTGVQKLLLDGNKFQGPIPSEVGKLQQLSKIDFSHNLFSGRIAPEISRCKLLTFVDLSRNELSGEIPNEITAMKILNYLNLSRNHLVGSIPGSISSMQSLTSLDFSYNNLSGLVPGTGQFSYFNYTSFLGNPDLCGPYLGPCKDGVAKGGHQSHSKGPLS
Where no end group is shown, it is not given here. [ ]: non-standard residue; d: D form. Hyp = O=C(O)[C@@H]1C[C@@H](O)CN1
ENDPOINT: pKd
In simple prose, pKd is minus the logarithm base ten of a concentration in moles per litre.

Find the recorded pKd belonging to RQV[Hyp]TGSDPLHH (the P at position 4 is hydroxyproline; also called synthetic CLE40 peptide; source: synthetic peptide (Peptide Specialty Labs GmbH)) [CLAVATA3/ESR-RELATED 40 (CLE40) peptide] and report it. 6.16
